tested on: ben-1 mutant (ECA882) C. elegans; assay: microbe, parasite or virus in culture; settings: Caenorhabditis elegans, read-out: C. elegans ben-1(e1880) development/viability
Threshold check on viability at 31.3 µM: strictly below 90% is Condition met; on or above 90% is Condition not met.

Observe how each entry below is paired with its result.
{"structure": "Cc1ccc(OCCn2cnc3ccccc32)cc1", "assayed-target": "ben-1 mutant (ECA882) C. elegans", "assigned-label": "Condition not met"}
{"structure": "CCCn1c(COc2ccc(C)cc2)nc2ccccc21", "assayed-target": "ben-1 mutant (ECA882) C. elegans", "assigned-label": "Condition not met"}
{"structure": "Clc1ccc(SCCCCn2cnc3ccccc32)cc1", "assayed-target": "ben-1 mutant (ECA882) C. elegans", "assigned-label": "Condition met"}

Enquiry: viability at 31.3 µM under 90%? Item: `Cc1ccc(OCCn2cnc3ccccc32)c(C)c1`
Return: Condition not met

Enquiry: Follow-up item: `Clc1ccccc1OCCCCn1cnc2ccccc21`
Return: Condition met

Enquiry: Follow-up item: `Cc1ccc(SCCCn2cnc3ccccc32)cc1`
Return: Condition met

----------
molecular target: C. elegans complex II (succinate dehydrogenase) (Caenorhabditis elegans, UniProt O62215+P41956+Q09545); test: In vitro complex II activity assay, C. elegans mitochondria; type: biochemical; settings: 100 µM compound, relative to solvent control, mean (SEM)
Sequence (P41956 30-182): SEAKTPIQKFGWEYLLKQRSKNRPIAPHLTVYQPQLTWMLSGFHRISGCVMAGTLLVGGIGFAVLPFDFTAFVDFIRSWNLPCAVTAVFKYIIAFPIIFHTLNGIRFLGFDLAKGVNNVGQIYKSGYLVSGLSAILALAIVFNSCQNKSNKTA
Sequence (Q09545 22-298): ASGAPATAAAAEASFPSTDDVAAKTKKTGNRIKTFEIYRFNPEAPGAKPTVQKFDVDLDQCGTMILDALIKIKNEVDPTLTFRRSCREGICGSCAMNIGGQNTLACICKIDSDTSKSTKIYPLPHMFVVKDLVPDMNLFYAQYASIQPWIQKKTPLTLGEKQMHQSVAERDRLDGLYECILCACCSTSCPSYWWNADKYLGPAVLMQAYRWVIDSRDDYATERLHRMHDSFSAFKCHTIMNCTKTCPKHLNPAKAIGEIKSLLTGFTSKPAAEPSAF
Sequence (Q09508 32-646, further chain): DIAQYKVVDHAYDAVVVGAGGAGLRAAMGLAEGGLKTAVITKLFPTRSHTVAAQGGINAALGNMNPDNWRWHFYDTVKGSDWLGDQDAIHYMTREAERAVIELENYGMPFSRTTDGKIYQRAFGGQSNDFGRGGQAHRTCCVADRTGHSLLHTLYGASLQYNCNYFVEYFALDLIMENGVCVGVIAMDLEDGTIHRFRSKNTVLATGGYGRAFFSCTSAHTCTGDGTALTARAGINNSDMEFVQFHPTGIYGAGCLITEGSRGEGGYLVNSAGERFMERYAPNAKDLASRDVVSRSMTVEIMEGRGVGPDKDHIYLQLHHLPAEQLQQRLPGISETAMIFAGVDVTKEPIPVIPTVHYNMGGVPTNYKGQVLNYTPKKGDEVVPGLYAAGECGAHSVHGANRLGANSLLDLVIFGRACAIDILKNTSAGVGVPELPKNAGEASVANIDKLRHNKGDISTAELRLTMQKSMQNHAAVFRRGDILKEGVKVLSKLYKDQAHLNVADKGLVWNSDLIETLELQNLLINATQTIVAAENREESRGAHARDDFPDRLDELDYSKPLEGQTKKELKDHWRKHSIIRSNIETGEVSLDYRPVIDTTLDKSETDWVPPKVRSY
Sequence (O62215 31-145): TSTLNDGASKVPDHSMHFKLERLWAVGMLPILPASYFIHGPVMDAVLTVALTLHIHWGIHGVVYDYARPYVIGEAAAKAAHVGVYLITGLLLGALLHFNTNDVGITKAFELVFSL
measurement-kind: % Activity Complex II

For orientation, consider the following solved cases.
{"compound": "COc1ccc(N=c2cc(-c3ccc(OC)cc3)oc3ccc(O)cc23)cc1 [NPD8034]", "% Activity Complex II": "89.02 (4.77) %"}
{"compound": "O=C1OC(c2ccccc2)=NC1=CC=Cc1ccccc1 (mixture of isomers) [NPD8298]", "% Activity Complex II": "110.37 (5.08) %"}
{"compound": "Cc1cc(O)c(C(=O)/C=C/c2ccc(C(C)C)cc2)c(=O)o1 [NPD6240]", "% Activity Complex II": "87.73 (3.81) %"}
{"compound": "O=C(/C=C/c1ccccc1)/C=C/c1ccccc1 [FSL0005]", "% Activity Complex II": "80.91 (2.02) %"}
{"compound": "COc1ccc(-c2cc(=Nc3ccccc3N)c3ccccc3o2)cc1 [NPD6380]", "% Activity Complex II": "102.27 (2.46) %"}
{"compound": "COc1ccc(-c2cc(=Nc3ccc(C)cc3)c3ccccc3o2)cc1OC [NPD1450]", "% Activity Complex II": "103.01 (4.34) %"}

Enquiry: I would be grateful if you could share the reported % Activity Complex II for CCCCCCCCCCCCCCCc1cccc(O)c1C(=O)O [Anacardic acid] .
Return: 87.62 (1.34) %

Enquiry: Follow-up item: Cc1cc(O)c(C(=O)/C=C/c2ccccc2)c(=O)o1 [NPD8366]
Return: 86.41 (3.37) %

----------
tested on: ben-1 mutant (ECA882) C. elegans; assay: microbe, parasite or virus in culture; details: Caenorhabditis elegans, read-out: C. elegans ben-1(e1880) development/viability
measurement-kind: viability at 500 µM

Enquiry: I would be grateful if you could share the reported viability at 500 µM for Cc1ccc(SCCCn2cnc3ccccc32)cc1 [Compound 7926035] .
Return: 3.4%

Enquiry: Follow-up item: Brc1ccccc1OCCCCn1cnc2ccccc21 [Compound 7924576]
Return: 2.1%

Enquiry: Follow-up item: Cc1ccc(OCCn2cnc3ccccc32)cc1 [Compound 5671538]
Return: 100%

Enquiry: Follow-up item: Clc1ccc(SCCCCn2cnc3ccccc32)cc1 [Compound 7925515]
Return: 3.1%

----------
biological target: B. taurus (heart) complex I (Bos taurus, UniProt P03887+P17694+P42026); test: biochemical; type: biochemical; details: Dose 0.625 µM; read-out: B. taurus mitochondrial complex I activity
Sequence (P03887 whole entry): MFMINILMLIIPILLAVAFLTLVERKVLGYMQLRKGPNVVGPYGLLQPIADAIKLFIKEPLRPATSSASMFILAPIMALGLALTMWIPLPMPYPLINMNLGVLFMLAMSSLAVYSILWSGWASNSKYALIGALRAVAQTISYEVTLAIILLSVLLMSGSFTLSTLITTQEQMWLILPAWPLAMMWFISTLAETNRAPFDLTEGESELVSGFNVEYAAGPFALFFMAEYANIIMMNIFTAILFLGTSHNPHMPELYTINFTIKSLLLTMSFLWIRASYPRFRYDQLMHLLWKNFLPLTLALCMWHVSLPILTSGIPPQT
Sequence (P17694 34-463): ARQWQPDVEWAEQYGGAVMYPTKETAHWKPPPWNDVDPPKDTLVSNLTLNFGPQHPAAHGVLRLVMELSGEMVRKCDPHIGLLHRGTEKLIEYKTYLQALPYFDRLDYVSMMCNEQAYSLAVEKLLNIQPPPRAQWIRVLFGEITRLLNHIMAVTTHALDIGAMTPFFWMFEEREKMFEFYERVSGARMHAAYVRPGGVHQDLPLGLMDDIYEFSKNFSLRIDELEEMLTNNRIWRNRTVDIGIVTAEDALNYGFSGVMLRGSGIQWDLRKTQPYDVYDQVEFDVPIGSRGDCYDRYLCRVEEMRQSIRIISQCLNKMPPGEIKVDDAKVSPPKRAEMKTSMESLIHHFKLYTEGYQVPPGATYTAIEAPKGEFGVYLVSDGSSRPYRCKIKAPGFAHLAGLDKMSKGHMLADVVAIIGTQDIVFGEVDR
Sequence (P42026 38-216): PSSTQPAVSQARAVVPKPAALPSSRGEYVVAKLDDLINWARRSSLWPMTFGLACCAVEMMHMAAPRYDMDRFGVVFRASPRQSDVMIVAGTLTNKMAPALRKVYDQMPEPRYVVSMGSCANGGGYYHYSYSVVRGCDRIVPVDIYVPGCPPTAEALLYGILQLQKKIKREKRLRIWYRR
Binning rule for recorded activity at 0.625 µM: lower band = under 80%, central band = from 80% up to 90%, upper band = 90% and over

Observe how each entry below is paired with its result.
{"structure": "Brc1ccccc1OCCCCn1cnc2ccccc21", "assigned-label": "lower band"}
{"structure": "Clc1ccc(Cn2cnc3ccccc32)cc1Cl", "assigned-label": "upper band"}
{"structure": "Cc1ccc(OCCn2cnc3ccccc32)cc1", "assigned-label": "central band"}

Enquiry: Classify this compound: `Cc1nc2ccccc2n1CCOc1ccccc1`
Return: upper band

Enquiry: Follow-up item: `Cc1ccc(OCCn2cnc3ccccc32)c(C)c1`
Return: central band

Enquiry: Follow-up item: `Cc1ccccc1OCCCn1c(C)nc2ccccc21`
Return: upper band

Enquiry: Follow-up item: `Cc1ccccc1OCCCCn1cnc2ccccc21`
Return: lower band

Enquiry: Follow-up item: `Clc1ccc(OCCn2cnc3ccccc32)c(Cl)c1`
Return: central band

Enquiry: Follow-up item: `CC(C)Oc1cccc(OCCn2cnc3ccccc32)c1`
Return: lower band

Enquiry: Follow-up item: `CCCOc1ccc(Cn2cnc3ccccc32)cc1`
Return: central band

Enquiry: Follow-up item: `Cc1nc2ccccc2n1Cc1ccc(Cl)c(Cl)c1`
Return: lower band

----------
molecular target: C. elegans (N2) complex I (NADH:ubiquinone oxidoreductase) (Caenorhabditis elegans, UniProt P24887+Q93873+Q94360); assay: biochemical; assay type: biochemical; details: Dose 15 µM; read-out: C. elegans mitochondrial complex I activity
Sequence (Q94360 17-199): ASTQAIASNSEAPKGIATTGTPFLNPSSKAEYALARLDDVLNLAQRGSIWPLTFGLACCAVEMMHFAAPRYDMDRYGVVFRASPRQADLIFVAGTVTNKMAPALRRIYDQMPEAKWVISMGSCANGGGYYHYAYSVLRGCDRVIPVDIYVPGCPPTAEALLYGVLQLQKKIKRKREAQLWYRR
Sequence (P24887 whole entry): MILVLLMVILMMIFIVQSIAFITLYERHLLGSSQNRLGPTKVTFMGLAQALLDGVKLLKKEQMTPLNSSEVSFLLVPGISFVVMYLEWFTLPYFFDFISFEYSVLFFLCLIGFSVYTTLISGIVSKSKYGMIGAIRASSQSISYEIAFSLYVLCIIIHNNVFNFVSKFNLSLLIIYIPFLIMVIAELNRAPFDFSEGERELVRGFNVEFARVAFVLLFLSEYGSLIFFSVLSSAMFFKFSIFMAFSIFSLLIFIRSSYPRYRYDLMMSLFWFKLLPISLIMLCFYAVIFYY
Sequence (Q93873 31-482): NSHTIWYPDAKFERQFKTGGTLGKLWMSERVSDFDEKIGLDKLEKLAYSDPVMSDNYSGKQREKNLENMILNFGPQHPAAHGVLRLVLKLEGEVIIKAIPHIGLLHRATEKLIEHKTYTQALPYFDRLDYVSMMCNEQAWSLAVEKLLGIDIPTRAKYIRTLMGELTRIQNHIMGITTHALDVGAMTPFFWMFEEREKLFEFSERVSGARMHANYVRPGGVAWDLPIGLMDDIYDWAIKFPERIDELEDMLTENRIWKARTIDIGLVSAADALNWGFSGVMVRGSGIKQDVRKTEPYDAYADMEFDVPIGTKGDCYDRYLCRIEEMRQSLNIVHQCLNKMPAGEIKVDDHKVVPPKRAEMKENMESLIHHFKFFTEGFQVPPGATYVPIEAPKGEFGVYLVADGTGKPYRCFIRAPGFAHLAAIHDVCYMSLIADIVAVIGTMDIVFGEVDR
Threshold check on activity at 15 µM: strictly below 20% is Condition met; on or above 20% is Condition not met.

{"structure": "Nc1nc2ccccc2n1Cc1ccc(Cl)cc1", "assigned-label": "Condition met"}
{"structure": "Cc1ccc(CSCc2nc3ccccc3[nH]2)cc1", "assigned-label": "Condition not met"}
{"structure": "Cc1ccccc1OCCCn1c(C)nc2ccccc21", "assigned-label": "Condition met"}
{"structure": "Cc1nc2ccccc2n1CCOc1ccccc1", "assigned-label": "Condition not met"}
{"structure": "CCCn1c(COc2ccc(C)cc2)nc2ccccc21", "assigned-label": "Condition not met"}

Enquiry: activity at 15 µM under 20%? Item: `Clc1ccccc1OCCCCn1cnc2ccccc21`
Return: Condition met

Enquiry: Follow-up item: `Cc1ccccc1OCCCCn1cnc2ccccc21`
Return: Condition met

----------
biological target: C. elegans (N2) complex I (NADH:ubiquinone oxidoreductase) (Caenorhabditis elegans, UniProt P24887+Q93873+Q94360); test: biochemical; type: biochemical; conditions: Dose 0.063 µM; read-out: C. elegans mitochondrial complex I activity
measurement-kind: activity at 0.063 µM (%)
Entry rule: numbers only, all in %.

{"structure": "Cc1ccccc1OCCCn1c(C)nc2ccccc21", "numeric-readout": 89.3}
{"structure": "Cc1nc2ccccc2n1CCOc1ccccc1", "numeric-readout": 78.1}
{"structure": "Cc1nc2ccccc2n1Cc1ccc(Cl)c(Cl)c1", "numeric-readout": 76.6}
{"structure": "Clc1ccc(SCCCCn2cnc3ccccc32)cc1", "numeric-readout": 83.9}
{"structure": "Cc1nc2ccccc2n1CCOc1ccccc1Cl", "numeric-readout": 81.1}
{"structure": "Clc1ccc(Cn2cnc3ccccc32)cc1Cl", "numeric-readout": 90.9}
{"structure": "CCCn1c(COc2ccc(C)cc2)nc2ccccc21", "numeric-readout": 111}
{"structure": "CC(C)Oc1cccc(OCCn2cnc3ccccc32)c1", "numeric-readout": 79.5}

Let's switch to this compound now.
Enquiry: I would be grateful if you could share the reported activity at 0.063 µM for `Clc1ccc(OCCn2cnc3ccccc32)c(Cl)c1` .
Return: 94.8

----------
molecular target: C. elegans (N2) complex I (NADH:ubiquinone oxidoreductase) (Caenorhabditis elegans, UniProt P24887+Q93873+Q94360); experiment: biochemical; type: biochemical; conditions: wild-type C. elegans mitochondria; estimated from fitted dose-response curves; read-out: C. elegans Complex I IC50
pIC50: −log10 of the molar value.
measurement-kind: pIC50

{"structure": "COc1ccccc1/C=C/c1nc2ccccc2[nH]1", "result": "< 4.12"}
{"structure": "C(=C\\c1nc2ccccc2[nH]1)/c1ccccc1", "result": "< 4.12"}

Let's switch to this compound now.
Enquiry: I would be grateful if you could share the reported pIC50 for `CCn1c(/C=C/c2ccc(F)cc2)nc2ccccc21` .
Return: < 4.12

----------
test: in vitro; conditions: human, HEK293 cells (Flp-In-293), HEK293 viability, Dose 50 µM
measurement-kind: viability at 2 days, 50 µM (%)
Entry rule: numbers only, all in %.

For orientation, consider the following solved cases.
{"compound": "Cc1ccccc1OCCCCn1cnc2ccccc21 [Compound 7732524]", "viability at 2 days, 50 µM [%]": 48.1}
{"compound": "Cc1cccc(OCCn2c(C)nc3ccccc32)c1 [Compound 6285199]", "viability at 2 days, 50 µM [%]": 98.3}
{"compound": "Nc1nc2ccccc2n1CCOc1ccc(Br)cc1 [Compound 5842535]", "viability at 2 days, 50 µM [%]": 6.3}
{"compound": "Clc1ccc(SCCCCn2cnc3ccccc32)cc1 [Compound 7925515]", "viability at 2 days, 50 µM [%]": 55.5}
{"compound": "Clc1ccc(Cn2cnc3ccccc32)c(Cl)c1 [Compound 6750659]", "viability at 2 days, 50 µM [%]": 76}
{"compound": "Cc1nc2ccccc2n1CCOc1ccccc1Cl [Compound 5561642]", "viability at 2 days, 50 µM [%]": 81.4}
{"compound": "FC(F)(F)c1cccc(OCCCCn2cnc3ccccc32)c1 [Compound 7925004]", "viability at 2 days, 50 µM [%]": 16.2}
{"compound": "Cc1ccc(C(C)C)c(OCC(O)Cn2cnc3ccccc32)c1 (centres unmarked) [Compound 6093301]", "viability at 2 days, 50 µM [%]": 7.3}
{"compound": "Clc1ccccc1OCCCCn1cnc2ccccc21 [Compound 7925804]", "viability at 2 days, 50 µM [%]": 40.2}
{"compound": "Nc1nc2ccccc2n1Cc1ccc(Cl)cc1 [Compound 5652765]", "viability at 2 days, 50 µM [%]": 62.3}

Let's switch to this compound now.
Enquiry: I would be grateful if you could share the reported viability at 2 days, 50 µM for CCc1cc(OCCn2cnc3ccccc32)ccc1Cl [Compound 7925288] .
Return: 8.7
